# System: AMPA receptor
# measurement_protocol: Cortical wedge model, AMPA receptor (rat brain slices in vitro)
# Format: cell-based
# measurement_conditions: receptor subtype AMPA
# Procedure: The Cortical wedge model is a test in which slices of rat brain is examined in vitro in order to quantify the effect of ligands at the various Glu-receptors and evaluate the pharmacological profile of the ligands (i.e. agonist/antagonist properties). The test was performed as described by Harrison, N. L. and Simmonds, M. A. Br.J.Pharmacol. 1985, 84, 381-391 as modified according to Wheatley, P. L. Br.J.Pharmacol. 1986, 87, 159P.

compound	Profile
C=CCOc1noc(C(=O)O)c1CC(N)C(=O)O (racemic)	Agonist
CCCOc1noc(C(=O)O)c1CC(N)C(=O)O (racemic)	Agonist
CCOc1noc(-c2nnn[nH]2)c1CC(N)C(=O)O (racemic)	Agonist

Sourced from patent US6200999A
